test system: LAMA-84 (Chronic Myelogenous Leukemia); assay: Bliss excess, mean over the matrix (fraction); higher = more synergy;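 also: after 72 h of two-drug dosing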
reported property: Bliss excess
No unit in the answer, only the number.

Some solved cases for reference:
molecule	target or test system	Bliss excess
CC(=O)c1c(C)c2cnc(Nc3ccc(N4CCNCC4)cn3)nc2n(C2CCCC2)c1=O [Palbociclib] + CC1(C)CCC(CN2CCN(c3ccc(C(=O)NS(=O)(=O)c4ccc(NCC5CCOCC5)c([N+](=O)[O-])c4)c(Oc4cnc5[nH]ccc5c4)c3)CC2)=C(c2ccc(Cl)cc2)C1 [Venetoclax] (first compound max 10 µM, 7x7, partner max 1 µM)	LAMA-84 (Chronic Myelogenous Leukemia)	0.0201
CN(C)CCCOc1ccc(-c2ccc3ncc4c(c3c2)n(C2CCOCC2)c(=O)n4C)cn1 [AZD0156] + CCN(CCO)CCCOc1ccc2c(Nc3cc(CC(=O)Nc4cccc(F)c4)[nH]n3)ncnc2c1 [AZD2811] (first compound max 1 µM, 7x7, partner max 1 µM)	LAMA-84 (Chronic Myelogenous Leukemia)	-0.021

// moving on: another record for Bliss excess
Reported Bliss excess for N#Cc1cnc(Nc2cc(NC[C@H]3CNCCO3)c(C(F)(F)F)cn2)cn1 [SRA737] + O=c1[nH]cc(F)c(=O)[nH]1 [5-Fluorouracil] (first compound max 10 µM, 7x7, partner max 20 µM) : what is it?
-0.057
